Cited source: PubChem BioAssay AID588676

test.target: Mas-related G-protein coupled receptor member X1 (Homo sapiens) (UniProt Q96LB2)
Sequence (Q96LB2 whole entry, looked up): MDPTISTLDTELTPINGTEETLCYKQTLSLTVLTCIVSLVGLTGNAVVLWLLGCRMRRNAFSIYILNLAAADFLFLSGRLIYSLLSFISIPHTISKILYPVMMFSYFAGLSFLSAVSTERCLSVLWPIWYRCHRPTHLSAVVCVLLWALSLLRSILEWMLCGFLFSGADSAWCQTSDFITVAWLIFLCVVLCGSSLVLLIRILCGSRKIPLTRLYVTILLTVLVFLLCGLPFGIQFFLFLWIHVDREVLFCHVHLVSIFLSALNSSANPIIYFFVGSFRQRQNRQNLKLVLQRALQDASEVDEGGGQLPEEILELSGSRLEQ
experiment: blockade of BAM8-22-evoked MrgX1 calcium response – HEK293 cells, Fluo-4 calcium flux, primary screen (AID 588676)
condition.description: Fluo-4, BAM8-22 antagonism, at 10 µM
The whole screen tested about 310,000 compounds, of which about 3,900 (1.3%) were called active.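 Rule for the calls: active = calcium-response B-score plate-corrected more than 3 library SD below zero, starting fluorescence within 5 deviations, no agonist response on first addition; inactive = the rest.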 What follows is part of a selection rich in actives, with near analogues and random picks from the rest.
The reply should be one of these categories: T (active), F (inactive)

>>> df
                                   compound  label_value
0  C[C@@H](NC(=O)OC(C)(C)C)c1nnc(S(=O)(=O)Cc2ccccc2)o1            F
1  COc1ccc(C(C)NC(=S)NC2CCCCC2)cc1OC (stereo not drawn)            F
2         CN(C)CCc1c[nH]c2ccc(Cn3cncn3)cc12            F
3            CN1CCN(NC(=O)Nc2ccc(Br)cc2)CC1            F
4  COCCNC(=O)c1ccccc1NS(=O)(=O)c1ccc(C)c([N+](=O)[O-])c1            T
5               CC(C)NC(=O)NNc1c(Cl)cncc1Cl            F
6  CN1C(CC(=O)Nc2ccc(Br)cc2)c2ccccc2CC1(C)C (stereo not drawn)            T
7  COc1ccc(CCNc2cc(N3CCN(C(=O)c4ccccc4OC)CC3)ccc2[N+](=O)[O-])cc1OC            T

Q: Hello, I am checking results. What call was entered for COc1ccccc1OCCNc1cc(N2CCOCC2)ccc1[N+](=O)[O-] ?
Ans: F

Q: Identify the outcome logged in this assay for the compound shown: Cc1cccc(OCC(O)Cn2c(N3CCCCC3)nc3c2c(=O)[nH]c(=O)n3C)c1 (stereo not drawn)
Ans: F

Q: Write down the call the test reported for this compound. Item: O=C(O)c1ccc2c(c1)C(=O)N(c1ccc(/C=C/C(=O)c3ccccc3)cc1)C2=O
Ans: T
